Molecular target: ErbB4 on neonatal rat cardiomyocytes (rat) (UniProt Q62956)
Sequence (Q62956 26-1308): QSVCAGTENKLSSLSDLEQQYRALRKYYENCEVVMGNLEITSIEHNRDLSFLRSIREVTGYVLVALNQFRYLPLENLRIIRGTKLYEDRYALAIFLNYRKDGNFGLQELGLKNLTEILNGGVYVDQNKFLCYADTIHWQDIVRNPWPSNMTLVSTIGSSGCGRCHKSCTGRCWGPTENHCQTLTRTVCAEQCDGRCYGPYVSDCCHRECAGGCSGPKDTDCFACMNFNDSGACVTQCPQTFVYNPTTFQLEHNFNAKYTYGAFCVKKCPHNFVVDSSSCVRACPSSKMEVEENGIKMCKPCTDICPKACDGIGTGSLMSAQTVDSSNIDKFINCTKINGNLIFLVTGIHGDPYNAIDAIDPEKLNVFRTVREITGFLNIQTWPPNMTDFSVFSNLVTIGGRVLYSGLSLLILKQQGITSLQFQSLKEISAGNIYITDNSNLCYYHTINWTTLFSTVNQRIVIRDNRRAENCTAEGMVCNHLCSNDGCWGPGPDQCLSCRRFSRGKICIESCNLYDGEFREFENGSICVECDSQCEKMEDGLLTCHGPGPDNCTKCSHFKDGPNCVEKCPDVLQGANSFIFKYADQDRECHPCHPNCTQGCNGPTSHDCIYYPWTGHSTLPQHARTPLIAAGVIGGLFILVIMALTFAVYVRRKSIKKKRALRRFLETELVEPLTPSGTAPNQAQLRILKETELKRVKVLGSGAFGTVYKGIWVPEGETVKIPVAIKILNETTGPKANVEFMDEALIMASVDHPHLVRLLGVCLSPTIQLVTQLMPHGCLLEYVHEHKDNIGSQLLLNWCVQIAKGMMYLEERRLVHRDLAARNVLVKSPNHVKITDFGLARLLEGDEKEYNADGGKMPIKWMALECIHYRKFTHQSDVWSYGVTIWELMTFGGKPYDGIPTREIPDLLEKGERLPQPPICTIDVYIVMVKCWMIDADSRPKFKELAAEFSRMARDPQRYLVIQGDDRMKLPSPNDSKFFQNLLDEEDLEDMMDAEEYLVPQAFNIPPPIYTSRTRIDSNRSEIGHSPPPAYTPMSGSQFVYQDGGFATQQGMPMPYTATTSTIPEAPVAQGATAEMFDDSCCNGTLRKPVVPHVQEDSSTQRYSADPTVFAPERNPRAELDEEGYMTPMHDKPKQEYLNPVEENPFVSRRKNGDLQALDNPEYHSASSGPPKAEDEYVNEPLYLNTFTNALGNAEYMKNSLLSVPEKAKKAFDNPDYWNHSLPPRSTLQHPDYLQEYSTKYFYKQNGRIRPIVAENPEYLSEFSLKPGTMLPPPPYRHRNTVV
Experiment: cell-based or functional assay
assay endpoint: CM % Agonism AVG

Answer with the recorded CM % Agonism AVG of huNRG1(S177-Q237)(2E3)::GG::huFcSEFL2 (Pb) (Fc fusion) SHLVKCGEKEKSFCVNGGECYMIEGLSIPSRFLCKCPNEFTGDRCQDVFMASFYKAEELYQGGDKTHTCPPCPAPELLGGPSVFLFPPKPKDTLMISRTPEVTCVVVDVSHEDPEVKFNWYVDGVEVHNAKTKPCEEQYGSTYRCVSVLTVLHQDWLNGKEYKCKVSNKALPAPIEKTISKAKGQPREPQVYTLPPSREEMTKNQVSLTCLVKGFYPSDIAVEWESNGQPENNYKTTPPVLDSDGSFFLYSKLTVDKSRWQQGNVFSCSVMHEALHNHYTQKSLSLSPGK only.
< 50%
